Tested on: Fibroblast
runDescription: Multiplex assay against human fibroblast
Format: toxicity, cell-based
experimentalContext: 12 h, 1 µM, compound concentration 1 uM, replicate 1
reportedEndpoint: Population Membrane Permeable-Phenotype (%)

CSc1ccccc1N1CCN(CCCCCC(=O)NC2CCCc3ccccc32)CC1.Cl (configuration not stated)	1%
CC[C@H]1OC(=O)[C@H](C)[C@@H](O[C@H]2C[C@@](C)(OC)[C@@H](O)[C@H](C)O2)[C@H](C)[C@@H](O[C@@H]2O[C@H](C)C[C@H](N(C)C)[C@H]2O)[C@@]2(C)CC(C)=C(O2)[C@H](C)[C@@H](O)[C@]1(C)O	0%
CNC[C@H](O)c1ccc(O)c(O)c1 [EPINEPHRINE]	1%
O=C(O)c1cc2ccccc2c(Cc2c(O)c(C(=O)O)cc3ccccc23)c1O	0%
Cc1nc2ccc(Oc3ccc(F)cc3)cc2c(=O)n1C[C@H]1CCCN(C(C)C)C1.Cl	1%
CC1(COc2ccc3c(c2)ncn3-c2ccc3cccc(N4CCC(N)CC4)c3n2)COC1	0%
CC(C)(C)c1ccc(S(=O)(=O)Nc2ccc(Cl)cc2C(=O)c2cc[n+]([O-])cc2)cc1	1%

###

Tested on: Fibroblast
runDescription: Multiplex assay against human fibroblast
Assay type: toxicity, cell-based
experimentalContext: 24 h, 10 µM, compound concentration 10 uM, replicate 2
Population Apoptotic (%) listing for selected compounds.
reportedEndpoint: Population Apoptotic (%)

N[C@@]1(C(=O)O)CO[C@H]2[C@H](C(=O)O)[C@H]21	22
Cc1ccccc1C(=O)Nc1ccc(C(=O)N2CCCC(N(C)C)c3ccccc32)cc1.Cl (configuration not stated)	57
C[C@H]1[C@H]2CC[C@H]3[C@@H]4CC=C5C[C@@H](N(C)C)CC[C@]5(C)[C@H]4CC[C@]23CN1C	36
COc1c(C)cc(NC(=O)c2nn(Cc3ccc(F)cc3)c3c2CN(C(=O)c2ccc[nH]2)C[C@]3(C)C(N)=O)cc1C	43
Cc1ccc(/C(=C\CN2CCCC2)c2ccccn2)cc1	58
O=S(=O)(c1ccccc1)c1cnc2c(N3CCNCC3)cccc2c1 [INTEPIRDINE]	91
CCCn1c(=O)c2[nH]c(C3CCCC3)nc2n(CCC)c1=O	20
O=C(O)Cc1ccccc1Nc1c(Cl)cccc1Cl	50
Cc1ccc(C(C)(O)c2nc3ccccc3s2)c(C)c1 (configuration not stated)	38
Cc1nc2ccc(Oc3ccc(F)cc3)cc2c(=O)n1C[C@H]1CCCN(C(C)C)C1.Cl	54
CCCN1CCC[C@@H]2Cc3n[nH]cc3C[C@H]21.Cl [QUINPIROLE HYDROCHLORIDE]	55
c1cc(OCCCN2CCCCC2)ccc1CN1CCCCC1	41
CC(=O)NCCc1c(Cc2ccccc2)[nH]c2ccccc12	23
CNC[C@H](O)c1ccc(O)c(O)c1 [EPINEPHRINE]	38
CC[C@H]1OC(=O)[C@H](C)[C@@H](O[C@H]2C[C@@](C)(OC)[C@@H](O)[C@H](C)O2)[C@H](C)[C@@H](O[C@@H]2O[C@H](C)C[C@H](N(C)C)[C@H]2O)[C@@]2(C)CC(C)=C(O2)[C@H](C)[C@@H](O)[C@]1(C)O	46
COc1ccc2c(c1)C(C(=O)N(Cc1ccc(N(C)C)cc1)c1ccc(C(C)C)cc1)CCC2.Cl (configuration not stated)	42
Cc1ccc(F)cc1C(=O)Nc1ccc(C(=O)N2Cc3cccn3Cc3ccccc32)c(Cl)c1	51
C[C@@H]1C[C@H]2[C@@H]3CCC4=CC(=O)C=C[C@]4(C)[C@@]3(F)[C@@H](O)C[C@]2(C)[C@@]1(O)C(=O)CO	30
O=C1COc2nccc(-c3ccccc3F)c2CN1Cc1cc(C(F)(F)F)cc(C(F)(F)F)c1	55
COc1cc(NC(=O)CCN2CCC(OC(=O)Nc3ccccc3-c3ccccc3)CC2)c(Cl)cc1CNC[C@H](O)c1ccc(O)c2[nH]c(=O)ccc12	81
Oc1c(CN2CCN(c3ccccn3)CC2)cc(Cl)c2cccnc12	56
O=C(O)c1cc2ccccc2c(Cc2c(O)c(C(=O)O)cc3ccccc23)c1O	40

###

Tested on: U2OS
runDescription: Multiplex assay against U2OS
Type: toxicity, cell-based
experimentalContext: human, 24 h, 1 µM, compound concentration 1 uM, replicate 2
reportedEndpoint: Population Healthy Nuclei (%)

CC(=O)NCCc1c(Cc2ccccc2)[nH]c2ccccc12	70
c1cc(OCCCN2CCCCC2)ccc1CN1CCCCC1	68
Cc1ccccc1C(=O)Nc1ccc(C(=O)N2CCCC(N(C)C)c3ccccc32)cc1.Cl (stereo not drawn)	77
N#Cc1c(N)nc(SCc2csc(-c3ccc(Cl)cc3)n2)c(C#N)c1-c1ccc(OCCO)cc1	71
Cc1ccc(/C(=C\CN2CCCC2)c2ccccn2)cc1	68
COc1cc(C(=O)N(CCCc2ccccc2)Cc2ccc(CC(=O)O)cc2)cc(OC)c1C	64
CSc1ccccc1N1CCN(CCCCCC(=O)NC2CCCc3ccccc32)CC1.Cl (stereo not drawn)	58
O=C(NCC(=O)N1CC[C@H](N[C@H]2CC[C@@](O)(c3ccc(-c4ncccn4)cn3)CC2)C1)c1cccc(C(F)(F)F)c1	76
CCOc1c2c(c(OCC)c3ncccc13)CN(c1ccc(CS(=O)(=O)NC(=O)Cc3ccccc3OC)cc1C)C2=O	76
CN1CCN(c2nc3cc(C(F)(F)F)ccc3n3cccc23)CC1.O=C(O)/C=C\C(=O)O.O=C(O)/C=C\C(=O)O	77
N[C@@]1(C(=O)O)CO[C@H]2[C@H](C(=O)O)[C@H]21	79
C[C@H](NC(=O)c1c(C(F)F)nn(C)c1Oc1cccc(C(F)(F)F)c1)c1ccc(C(=O)O)cc1	73
O=C(O)Cc1ccccc1Nc1c(Cl)cccc1Cl	70
CCNC1(C(N)=O)CCN(c2ncnc3c2nc(-c2ccccc2Cl)n3-c2ccc(Cl)cc2)CC1	62
CSCC[C@H](NC=O)C(=O)N[C@@H](CC(C)C)C(=O)N[C@@H](Cc1ccccc1)C(=O)O	75
O=C1COc2nccc(-c3ccccc3F)c2CN1Cc1cc(C(F)(F)F)cc(C(F)(F)F)c1	76
CN(C)c1ccnc2sc3c(=O)n(N4CCCCCC4)cnc3c12	76
O=C(NCCO)c1cccc(-c2cc(Nc3ccc(OC(F)(F)F)cc3)ncn2)c1	69

###

Population Normal (%) listing for selected compounds.
Tested on: HEK-293T
runDescription: Multiplex assay against HEK293T
Format: toxicity, cell-based
experimentalContext: human, 48 h, 10 µM, compound concentration 10 uM, replicate 2
reportedEndpoint: Population Normal (%)

Cc1ccc(C(C)(O)c2nc3ccccc3s2)c(C)c1 (centres undefined)	96
Cc1ccc(/C(=C\CN2CCCC2)c2ccccn2)cc1 [TRIPROLIDINE]	95
C[C@H]1[C@H]2CC[C@H]3[C@@H]4CC=C5C[C@@H](N(C)C)CC[C@]5(C)[C@H]4CC[C@]23CN1C [CONESSINE]	94
CC(C)(C)c1ccc(S(=O)(=O)Nc2ccc(Cl)cc2C(=O)c2cc[n+]([O-])cc2)cc1 [VERCIRNON]	97
Cc1nc2ccc(Oc3ccc(F)cc3)cc2c(=O)n1C[C@H]1CCCN(C(C)C)C1.Cl	78
CCCC(CCC)C(=O)O [VALPROIC ACID]	98
COc1cc(C(=O)N(CCCc2ccccc2)Cc2ccc(CC(=O)O)cc2)cc(OC)c1C	91
Oc1c(CN2CCN(c3ccccn3)CC2)cc(Cl)c2cccnc12	85
CC(=O)NCCc1c(Cc2ccccc2)[nH]c2ccccc12 [LUZINDOLE]	93
CSc1ccccc1N1CCN(CCCCCC(=O)NC2CCCc3ccccc32)CC1.Cl (centres undefined)	81
C[C@H](NC(=O)c1c(C(F)F)nn(C)c1Oc1cccc(C(F)(F)F)c1)c1ccc(C(=O)O)cc1 [PALUPIPRANT]	96
CC[C@H]1OC(=O)[C@H](C)[C@@H](O[C@H]2C[C@@](C)(OC)[C@@H](O)[C@H](C)O2)[C@H](C)[C@@H](O[C@@H]2O[C@H](C)C[C@H](N(C)C)[C@H]2O)[C@@]2(C)CC(C)=C(O2)[C@H](C)[C@@H](O)[C@]1(C)O	87
COc1ccc2c(c1)C(C(=O)N(Cc1ccc(N(C)C)cc1)c1ccc(C(C)C)cc1)CCC2.Cl (centres undefined)	96
C[C@@H]1C[C@H]2[C@@H]3CCC4=CC(=O)C=C[C@]4(C)[C@@]3(F)[C@@H](O)C[C@]2(C)[C@@]1(O)C(=O)CO [DEXAMETHASONE]	93
O=C(O)c1cc2ccccc2c(Cc2c(O)c(C(=O)O)cc3ccccc23)c1O [PAMOIC ACID]	92
CN1CCN2c3ncccc3Cc3ccccc3C2C1 (centres undefined) [MIRTAZAPINE]	96
CN(C)c1ccnc2sc3c(=O)n(N4CCCCCC4)cnc3c12	93
CCCn1c(=O)c2[nH]c(C3CCCC3)nc2n(CCC)c1=O	92
O=C(O)Cc1ccccc1Nc1c(Cl)cccc1Cl [DICLOFENAC]	95
